Measured pKd accompanies every entry in the list below.
- target_or_system: T1, human DR3-Fc fusion protein (human, UniProt Q93038 25-199)
- T1 construct: also called hDR3-Fc; not shown: Fc portion
- T1 sequence: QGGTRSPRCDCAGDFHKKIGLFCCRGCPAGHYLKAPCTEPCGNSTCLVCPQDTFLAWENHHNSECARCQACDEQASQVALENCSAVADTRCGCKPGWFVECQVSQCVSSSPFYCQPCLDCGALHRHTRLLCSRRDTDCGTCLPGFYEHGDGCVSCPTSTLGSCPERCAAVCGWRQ
- experiment_notes: BIAcore SPR; human DR3-Fc amine-coupled to CM5 chip, Fab in flow; 1:1 model; average of n=2
Scale note: pKd = -log10(concentration in M).

Examples with answers:
binder | readout_label | experimental_value
H1.1L1-Fab (Fab, V domains shown) VH: EVQLVESGGGLVKPGGSLRLSCAASGFTFTNYAMSWVRQAPGQRLEWVSTITSGGSYIYYLDSVKGRFTISRDNAKSTLYLQMNSLRAEDTAVYYCARRKDGNYYYAMDYWGQGTTVTVSS VL: DIVLTQSPATLSLSPGERATLSCRASESVDSYGNSFIHWYQQKPGQPPKLLIYRASNLESGIPARFSGSGSRTDFTLTISSLEPEDFAVYYCQQSYEDPWTFGGGTKLEIKR | pKd | 8.84
H5.3L2-Fab (Fab, V domains shown) VH: EVMLLQSGAEVKKPGASVKVSCKASGFTFTNYAMSWVRQAPGQRLEWVATITSGGSYIYYLDSVKGRFTISRDNAKSTLHLQMNSLRAEDTAVYYCARRKDGNYYYAMDYWGQGTTVTVSS VL: DIVLTQSPSSLSASVGDRVTITCRASESVDSYGNSFIHWYQQKPGQPPKLLIYRASNLESGIPARFSGSGSRTDFTLTISSLQPEDFATYYCQQSYEDPWTFGGGTKLEIKR | pKd | 8.78

As a next step, examine the binder that follows.
What does the data say about its pKd? Entry: H1.1L2-Fab (Fab, V domains shown) VH: EVQLVESGGGLVKPGGSLRLSCAASGFTFTNYAMSWVRQAPGQRLEWVSTITSGGSYIYYLDSVKGRFTISRDNAKSTLYLQMNSLRAEDTAVYYCARRKDGNYYYAMDYWGQGTTVTVSS VL: DIVLTQSPSSLSASVGDRVTITCRASESVDSYGNSFIHWYQQKPGQPPKLLIYRASNLESGIPARFSGSGSRTDFTLTISSLQPEDFATYYCQQSYEDPWTFGGGTKLEIKR
8.93

Values compiled from patent US20120014950A1.
